experiment: MTT cytotoxicity assay on BJ fibroblasts; type: cell-based; settings: human, BJ fibroblast cells, compounds 100-0.78 μM, GA 10-0.078 μM, 2 independent experiments
Readout label: IC50 at 24 h

CCN(CC)Cc1ccc(Cn2c(=O)c(OCc3ccc(C(=O)NO)cc3)c(-c3cccnc3)c3ccccc32)cc1: > 100 µM

# input Could you share which IC50 at 24 h value was measured for "Cn1c(=O)c(OCc2ccc(C(=O)NO)cc2)c(C2CCCCC2)c2ccccc21" ?
# output > 100 µM

* * *

test: MTT cytotoxicity assay on BJ fibroblasts; type: cell-based; settings: human, compounds 100-0.78 μM, GA 10-0.078 μM, 2 independent experiments
Readout label: IC50 at 24 h
Answer with the figure and its unit, nothing else.

# input Could you share which IC50 at 24 h value was measured for CC(C)=CCC[C@]1(C)C=Cc2c(O)c3c(c(CC=C(C)C)c2O1)O[C@]12C(=C[C@@H]4C[C@H]1C(C)(C)O[C@@]2(C/C=C(/C)C(=O)O)C4=O)C3=O [GA, Gambogic acid, reference compound] ?
# output 350 nM

* * *

Test: MTT cytotoxicity assay on L929 fibroblasts
Type: cell-based, murine
Settings: mouse, compounds 100-0.78 μM, GA 10-0.078 μM, 2 independent experiments
Experimental: The NCTC clone 929 (L-929) murine fibroblast isolated from subcutaneous connective tissue (ATCC-CCL-1) were cultured in Dulbecco’s Modified Eagle Medium (DMEM) supplemented with 10 mM Hepes (pH 6.98–7.30), 1 mM l-glutamine, 100 U/ml of penicillin/streptomycin (BioWhittaker, Lonza, EuroClone SpA), and heat-inactivated 10% FBS. […] The cytotoxicity of the hit compounds was assessed in two independent experiments on murine L929 and human BJ fibroblasts at 24 h by MTT assays. […]
Readout label: IC50 at 24 h (nM)
One number for each entry, in nM.

# input Could you share which IC50 at 24 h value was measured for CC(C)=CCC[C@]1(C)C=Cc2c(O)c3c(c(CC=C(C)C)c2O1)O[C@]12C(=C[C@@H]4C[C@H]1C(C)(C)O[C@@]2(C/C=C(/C)C(=O)O)C4=O)C3=O [GA, Gambogic acid, reference compound] ?
# output 500
